# Assay Name: Evaluated for the activation of human thrombin receptor measured by platelet aggregation
Where a SMILES comes first, the peptide text is derived from it. [ ]: non-standard residue; d: D form. Phe(3,4-Cl2) = N[C@@H](Cc1ccc(Cl)c(Cl)c1)C(=O)O; 2Nal = N[C@@H](Cc1ccc2ccccc2c1)C(=O)O; Cha = N[C@@H](CC1CCCCC1)C(=O)O
Measured Property: EC50 (µM)

CC(C)C[C@H](NC(=O)[C@H](Cc1ccc(Cl)c(Cl)c1)NC(=O)[C@H](C)N)C(=O)N[C@@H](CC1CCCCC1)C(=O)N[C@@H](CCCNC(=N)N)C(N)=O (H-A[Phe(3,4-Cl2)]L[Cha]R-NH2) : 0.27
CC(C)C[C@H](NC(=O)[C@H](CC(C)C)NC(=O)[C@H](Cc1ccccc1)NC(=O)[C@@H](N)CO)C(=O)N[C@@H](CCCNC(=N)N)C(=O)N[C@@H](CC(N)=O)C(=O)N1CCC[C@H]1C(=O)N[C@@H](CC(N)=O)C(=O)N[C@@H](CC(=O)O)C(N)=O [SFLLRDPQD-NH2] (H-SFLLRNPND-NH2) : 3.3

[I] CC(C)C[C@H](NC(=O)[C@H](CC(C)C)NC(=O)[C@H](Cc1ccc2ccccc2c1)NC(=O)[C@H](C)N)C(=O)N[C@@H](CCCNC(=N)N)C(N)=O (H-A[2Nal]LLR-NH2)
[II] CC(=O)N[C@@H](Cc1ccccc1)C(=O)N[C@@H](CC(C)C)C(=O)N[C@@H](CC(C)C)C(=O)N[C@@H](CCCNC(=N)N)C(N)=O (Ac-FLLR-NH2)
// compare: I vs II , metric EC50, want the smaller Please reply using the label of the selected record.
I
(I: 19 µM, II: 200 µM)

----------
# Assay Name: Evaluated for the activation of human thrombin receptor measured by platelet aggregation
pEC50: −log10 of the molar value. Where a SMILES comes first, the peptide text is derived from it. [ ]: non-standard residue; d: D form. Phe(4-F) = N[C@@H](Cc1ccc(F)cc1)C(=O)O; hArg = N=C(N)NCCCC[C@H](N)C(=O)O
Measured Property: pEC50

[P] CC(C)C[C@H](NC(=O)[C@H](C)NC(=O)[C@H](Cc1ccccc1)NC(=O)[C@@H](N)CO)C(=O)N[C@@H](CCCNC(=N)N)C(N)=O (H-SFALR-NH2)
[Q] CC(C)C[C@H](NC(=O)[C@H](CC(C)C)NC(=O)[C@H](Cc1ccc(F)cc1)NC(=O)[C@H](C)N)C(=O)N[C@@H](CCCCNC(=N)N)C(N)=O (H-A[Phe(4-F)]LL[hArg]-NH2)
Among P and Q , which shows a numerically higher pEC50 result? Please reply using the label of the selected record.
Q

----------
# key: entry, value: EC50
# Assay Name: Evaluated for the activation of human thrombin receptor measured by platelet aggregation
Where a SMILES comes first, the peptide text is derived from it.
Supply the numeric figure in µM, leaving out any unit text.

COc1ccc(C[C@H](NC(=O)[C@H](C)N)C(=O)N[C@@H](CC(C)C)C(=O)N[C@@H](CC(C)C)C(=O)N[C@@H](CCCNC(=N)N)C(N)=O)cc1 (H-AY(Me)LLR-NH2) : 21.4

Consider the compound CC(C)C[C@H](NC(=O)[C@H](CC(C)C)NC(=O)[C@H](Cc1ccccc1)NC(=O)[C@@H](N)Cc1ccc(O)cc1)C(=O)N[C@@H](CCCNC(=N)N)C(N)=O (H-YFLLR-NH2) and give its measured EC50.
400
